# credit: PubChem BioAssay AID463173

# Test system: DeltatarO mutant
# Run description: S. aureus survival, RN4220 and DeltatarO strains – OD600, teichoic acid synthesis inhibitors, primary screen (AID 463173)
# Assay conditions: S. aureus RN4220 wild type/DeltatarO growth, OD600, 18 h, screened at 18.75 µg/mL (by protocol)
Out of some 52,000 compounds screened, about 4,300 (8.3%) were called active. No stated cut-off is given here; in the data, active means survival mostly below about 52% (no sharp cut-off); inactive means mostly above about 56%. Shown is part of a subset that was picked to be rich in actives.
Outcomes: active, inactive

Cc1ccc(-c2cnc(NC(=O)CCC(=O)N3CCCCC3)n2C)cc1 ... inactive
COC(=O)c1ccc(NC(=O)CSc2ccc(-c3sc(-c4ccccc4)nc3C)nn2)cc1 ... active
O=C1CSC(N(c2ccccc2)c2ccccc2)=N1 ... inactive
Cn1c(-c2ccc3c(c2)OCO3)cnc1NCc1cc(Cl)ccc1O ... inactive
COC(=O)c1ccc(-n2c(/C=C/c3cc(OC)c(OC)c(OC)c3)nc3cc(Cl)ccc3c2=O)cc1 ... inactive
COc1ccc(OC)c(NC(=O)c2ccc3c(c2)c(C)c(C)n3Cc2ccc(F)cc2)c1 ... inactive
Cc1ccccc1OCC(=O)NCC(c1ccc(Cl)cc1)N1CCCCC1 (stereo unspecified) ... inactive
COc1cc(NC(=O)N(Cc2ccco2)C2CCN(C(C)=O)CC2)cc(OC)c1OC ... inactive
Cn1c(NCc2cccc(Cl)c2)nc2ccccc21 ... inactive
Nc1c(C(=O)Nc2ccccc2Cl)c2ccccn2c1C(=O)c1ccc(Cl)cc1 ... inactive
CC(=NCCCn1ccnc1)c1c(C(F)(F)F)[nH]n(-c2nc3ccccc3s2)c1=O ... inactive
CCn1c(NCc2cccc(Cl)c2)nc2ccccc21 ... inactive
COC(=O)c1ccc(NC(=O)CSc2n[nH]c(CC(C)C)n2)cc1 ... active
CCCc1cc(=O)n2[nH]c(NCc3c(F)cccc3Cl)nc2n1 ... inactive
CC1(C)C(=O)N(CC(=O)Nc2cccc(F)c2)c2ccc(S(=O)(=O)N3CCCCC3)cc21 ... inactive
Cn1c(-c2ccccc2)cnc1NCc1ccccc1O ... active
CCOC(=O)c1[nH]c(Cc2[nH]c(C(=O)OCC)c(C)c2CC(=O)OC)c(CCC(=O)OC)c1C ... inactive
CCOC(=O)c1ccccc1NC(=O)CSc1ccc(-c2sc(-c3ccccc3)nc2C)nn1 ... inactive
COc1ccc(CCC(=O)NC2CC(=O)N(c3cccc(F)c3)C2)cc1 (stereo unspecified) ... inactive
Cc1nc(-c2ccccc2)sc1-c1ccc(SCC(=O)NCc2ccccc2)nn1 ... inactive
CCN1C(=O)/C(=C\C=C2/N(CC)c3ccc(C(=O)OC)cc3N2CC)SC1=S ... inactive

---

# Tested on: DeltatarO mutant
# Run description: S. aureus survival, RN4220 and DeltatarO strains – OD600, teichoic acid synthesis inhibitors, primary screen (AID 463173)
# Assay conditions: S. aureus RN4220 wild type/DeltatarO growth, OD600, 18 h, stronger effect = lower value, screened at 18.75 µg/mL (by protocol)
The campaign covered roughly 52,000 compounds. About 4,300 (8.3%) were called active. The sample holds actives, similar compounds and a random draw of the others, so the mix is not that of the screen.
The label 1 (yes) is reserved for survival strictly under 50%; 0 (no) covers values equal to or above it.

CC(C)(C)OC(=O)N1CCC(c2c(C(=O)N3CCN(c4ccccc4)CC3)cnn2-c2ccccc2)CC1 ... 0 (no)
CCCCCN1C(C(=O)c2ccccc2)=C(OC(=O)CC)c2ccccc2S1(=O)=O ... 1 (yes)
CC(=O)N1CCC2(CC1)OC(=O)C(C)=C2C(=O)NCc1ccc(Cl)cc1 ... 0 (no)
Cn1c(=O)n(C)c2cc(NS(=O)(=O)c3ccc(Cl)cc3)c(NCc3ccccc3)cc21 ... 0 (no)
Cc1ccc(CNC(=O)CCc2nc3cccnc3n2Cc2ccccc2)cc1 ... 0 (no)
CCOc1ccc(NC(=O)Cn2nc3c(cc2=O)CC(C)CC3)cc1 (centres undefined) ... 0 (no)
Cn1nc(C(=O)N2CCN(c3ccccc3F)CC2)c2c1-c1ccccc1S(=O)(=O)C2 ... 0 (no)
COc1ccc(-n2c(=O)c3ccc(C(=O)NCc4ccc(C)cc4)cc3n(CC(=O)Nc3cccc(F)c3)c2=O)cc1 ... 0 (no)
COc1cc(CNC(=O)C2CCCCN2S(=O)(=O)c2ccc(F)cc2)cc(OC)c1OC (centres undefined) ... 0 (no)
COc1ccccc1N1CCN(C(=O)c2nn(C)c3c2CS(=O)(=O)c2ccccc2-3)CC1 ... 0 (no)
CCCCC(=O)OC1=C(C(=O)c2ccccc2)N(C)S(=O)(=O)c2ccccc21 ... 0 (no)
Cn1c(=O)n(C)c2cc(NS(=O)(=O)c3ccc(C(C)(C)C)cc3)c(NCc3ccccc3)cc21 ... 1 (yes)
CCn1cc2nc(SCC(=O)Nc3ccc(C)cc3)n(Cc3ccc(C)cc3)c(=O)c2n1 ... 0 (no)
CCCCC(=O)OC1=C(C(=O)c2ccccc2)N(CC)S(=O)(=O)c2ccccc21 ... 0 (no)
CC(C)c1ccc(S(=O)(=O)Nc2cc3c(cc2NCc2ccccc2)n(C)c(=O)n3C)cc1 ... 1 (yes)
COc1ccc(Cl)cc1NS(=O)(=O)c1cc(-c2cc(C)no2)ccc1C ... 0 (no)
Cc1ccc2c(CC(=O)Nc3ccc(S(=O)(=O)N4CCCCC4C)cc3)coc2c1C (centres undefined) ... 0 (no)
